molecular target: GST-MCL-1 (Homo sapiens, UniProt Q07820); test: TR-FRET MCL-1 binding assay (competition with probe F-Bak); settings: MCL-1 Binding Ki (nM, 10% HS), in the presence of 10% HS (human serum)
Sequence (Q07820 whole entry): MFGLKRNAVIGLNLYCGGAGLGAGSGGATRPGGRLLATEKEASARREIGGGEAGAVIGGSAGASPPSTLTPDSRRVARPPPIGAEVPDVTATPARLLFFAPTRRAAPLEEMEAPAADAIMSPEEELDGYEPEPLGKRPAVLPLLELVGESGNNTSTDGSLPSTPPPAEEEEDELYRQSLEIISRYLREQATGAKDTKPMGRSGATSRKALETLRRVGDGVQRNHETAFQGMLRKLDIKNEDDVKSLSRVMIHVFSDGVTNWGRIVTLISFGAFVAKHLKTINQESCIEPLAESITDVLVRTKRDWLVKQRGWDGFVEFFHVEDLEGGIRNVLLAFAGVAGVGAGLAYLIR
The following molecules are shown together with reported Ki values.
The answer is to be given in nM; state only the numeric part.

Cc1c(Cl)c2c(Cl)c(C)c1-c1c(-c3ccc(F)cc3)sc3ncnc(c13)O[C@@H](C(=O)O)Cc1cc(ccc1OCc1ccnc(N3CC4CC(C4)C3)n1)OC[C@@H](CN1CCN(C)CC1)O2
3.98

Briefly, Ki measured for COCCOCCOC[C@]1(F)CC[C@@H](c2nccc(COc3ccc4cc3C[C@H](C(=O)O)Oc3ncnc5sc(-c6ccc(F)cc6)c(c35)-c3c(C)c(Cl)c(c(Cl)c3C)O[C@H](CN3CCN(C)CC3)CO4)n2)CC1 : 0.037

Briefly, Ki measured for Cc1c(Cl)c2c(Cl)c(C)c1-c1c(-c3ccc(F)cc3)sc3ncnc(c13)O[C@@H](C(=O)O)Cc1cc(ccc1OCc1ccnc(-c3ccc(O[C@H]4CO[C@H]5[C@@H]4OC[C@@H]5O)cc3)n1)OC[C@@H](CN1CCN(C)CC1)O2 : 0.2

Briefly, Ki measured for Cc1c(Cl)c2c(Cl)c(C)c1-c1c(-c3ccc(F)cc3)sc3ncnc(c13)O[C@@H](C(=O)O)Cc1cc(ccc1OCc1ccnc(C3(COCCOC[C@H]4COCCO4)CCCCC3)n1)OC[C@@H](CN1CCN(C)CC1)O2 : 3.27
